test.system: full-length beta-Catenin (Uniprot ID P35222) (Homo sapiens (Human)) (UniProt P35222)
Sequence (P35222 2-781 limits assumed): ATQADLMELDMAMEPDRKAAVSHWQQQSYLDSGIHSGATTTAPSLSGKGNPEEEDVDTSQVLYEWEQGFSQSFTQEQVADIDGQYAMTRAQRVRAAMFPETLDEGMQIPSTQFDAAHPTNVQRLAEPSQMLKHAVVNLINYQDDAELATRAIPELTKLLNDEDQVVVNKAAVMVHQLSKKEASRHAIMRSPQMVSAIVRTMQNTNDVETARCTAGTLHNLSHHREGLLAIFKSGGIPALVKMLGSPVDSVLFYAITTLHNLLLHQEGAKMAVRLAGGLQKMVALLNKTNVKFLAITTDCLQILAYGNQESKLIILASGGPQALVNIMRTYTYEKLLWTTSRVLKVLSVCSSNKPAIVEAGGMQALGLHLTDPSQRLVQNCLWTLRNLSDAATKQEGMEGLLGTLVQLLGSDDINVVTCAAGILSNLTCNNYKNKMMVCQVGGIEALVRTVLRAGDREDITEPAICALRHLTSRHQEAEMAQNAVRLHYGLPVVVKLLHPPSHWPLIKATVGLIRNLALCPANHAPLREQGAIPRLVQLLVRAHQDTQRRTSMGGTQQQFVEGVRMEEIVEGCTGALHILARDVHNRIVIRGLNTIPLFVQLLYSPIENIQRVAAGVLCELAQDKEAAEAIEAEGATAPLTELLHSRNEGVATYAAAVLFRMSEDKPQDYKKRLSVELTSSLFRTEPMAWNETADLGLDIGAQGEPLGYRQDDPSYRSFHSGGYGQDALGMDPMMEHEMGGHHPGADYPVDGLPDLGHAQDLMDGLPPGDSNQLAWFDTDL
assay.comment: fluorescence polarization competition; full-length beta-catenin + 5FAM-TCF4(10-53) probe as competitor
Starred links: 1 amine or outer side, 2 acyl side, 3 side chain; linkers in the order of their positions; H or OH if unused. Positions of bridges follow the written chain, without caps; N, C: chain ends. Non-standard residues stand in square brackets, D forms with d. Primed or numbered codes have the meaning given here. *: point of attachment. PyrS2″ = (S)-3-amino-1-((pent-4-en-1-yloxy)carbonyl)pyrrolidine-3-carboxylic acid (stapling residue), C=CCCCOC(=O)N1CC[C@@](N[*:1])(C(=O)[*:2])C1; B5(4) = 2,2-bis(4-pentenyl)glycine = 2-amino-2-(pent-4-en-1-yl)hept-6-enoic acid (stitching residue), C=CCCCC(CCCC=C)(N[*:1])C(=O)[*:2]; B5(5) = 2,2-bis(4-pentenyl)glycine, 2-amino-2-(pent-4-en-1-yl)hept-6-enoic acid (stitching residue), C=CCCCC(CCCC=C)(N[*:1])C(=O)[*:2]; Phe(2-Cl) = N[C@@H](Cc1ccccc1Cl)C(=O)O; Phe(2-OMe) = COc1ccccc1C[C@H](N)C(=O)O; 1Nal = N[C@@H](Cc1cccc2ccccc12)C(=O)O; 2Nal = N[C@@H](Cc1ccc2ccccc2c1)C(=O)O; Bta = N[C@@H](Cc1csc2ccccc12)C(=O)O; αAllylPro = C=CC[C@@]1(C(=O)O)CCCN1; tBuAla = CC(C)(C)C[C@H](N)C(=O)O; Cha = N[C@@H](CC1CCCCC1)C(=O)O; S8 = C=CCCCCCC[C@](C)(N)C(=O)O; Thr(ol) = C[C@@H](O)[C@H](N)CO; Phe(ol) = N[C@H](CO)Cc1ccccc1; Prolinol = OC[C@@H]1CCCN1*

{"binder": "Ac-[αAllylPro]D[Cha][B5(5)]DDAAFL[PyrS2″][Phe(2-Cl)][Bta]S-NH2 (staple 1-4, 4-11) [I-1112]", "value.units": "nM", "EC50": 40}
{"binder": "Ac-[αAllylPro]D[tBuAla][B5(5)]DDAAFS[PyrS2″][Cha][Bta]S-NH2 (staple 1-4, 4-11) [I-1106]", "value.units": "nM", "EC50": 23}
{"binder": "Ac-[αAllylPro]D[tBuAla][B5(5)]DEAAFL[S8][Phe(2-Cl)][Bta][dT]-NH2 (staple 1-4, 4-11) [I-1098]", "value.units": "nM", "EC50": 100}
{"binder": "Ac-[αAllylPro]D[Cha][B5(5)]DDAAF[Cha][PyrS2″][Phe(2-Cl)][Bta]Q-NH2 (staple 1-4, 4-11) [I-1107]", "value.units": "nM", "EC50": 18}
{"binder": "Ac-[αAllylPro]D[1Nal][B5(5)]DDAAFS[PyrS2″][Phe(2-Cl)][Bta]Q-NH2 (staple 1-4, 4-11) [I-1108]", "value.units": "nM", "EC50": 18}
{"binder": "Ac-[αAllylPro]D[Cha][B5(5)]DDAAFS[PyrS2″]F[Bta]S-NH2 (staple 1-4, 4-11) [I-1100]", "value.units": "nM", "EC50": 16}
{"binder": "Ac-[αAllylPro]D[tBuAla][B5(4)]DDAAFN[PyrS2″][Phe(2-Cl)][Bta]-Prolinol (staple 1-4, 4-11) [I-1084]", "value.units": "nM", "EC50": 368}
{"binder": "Ac-[αAllylPro]D[tBuAla][B5(5)]DEAAFT[S8][Phe(2-Cl)][Bta][dT]-NH2 (staple 1-4, 4-11; also: later-eluting isomer) [I-1094]", "value.units": "nM", "EC50": 46}
{"binder": "Ac-[αAllylPro]D[tBuAla][B5(5)]DDAAFL[S8][Phe(2-Cl)][Bta][dT]-NH2 (staple 1-4, 4-11) [I-1097]", "value.units": "nM", "EC50": 40}
{"binder": "Ac-[αAllylPro]D[tBuAla][B5(4)]DDAAFN[PyrS2″][Phe(2-Cl)][Bta][Phe(ol)] (staple 1-4, 4-11) [I-1083]", "value.units": "nM", "EC50": 8}
{"binder": "Ac-[αAllylPro]D[tBuAla][B5(5)]DDAAFS[PyrS2″]F[Bta]S-NH2 (staple 1-4, 4-11) [I-1099]", "value.units": "nM", "EC50": 9}
{"binder": "Ac-[αAllylPro]D[tBuAla][B5(4)]DEAAFT[S8][Phe(2-Cl)][Bta]Q-NH2 (staple 1-4, 4-11; also: earlier-eluting isomer composition) [I-1088]", "value.units": "nM", "EC50": 22}
{"binder": "Ac-[αAllylPro]D[tBuAla][B5(4)]DEAAFT[S8][Phe(2-Cl)][Bta]Q-NH2 (staple 1-4, 4-11; also: later-eluting isomer composition) [I-1089]", "value.units": "nM", "EC50": 12}
{"binder": "Ac-[αAllylPro]D[2Nal][B5(5)]DDAAFS[PyrS2″][Phe(2-Cl)][Bta]Q-NH2 (staple 1-4, 4-11) [I-1109]", "value.units": "nM", "EC50": 24}
{"binder": "Ac-[αAllylPro]D[tBuAla][B5(4)]DDAAFT[S8][Phe(2-Cl)][Bta]Q-NH2 (staple 1-4, 4-11; also: later-eluting HPLC peak staple isomer composition) [I-1087]", "value.units": "nM", "EC50": 9}
{"binder": "Ac-[αAllylPro]D[tBuAla][B5(4)]DDAAFN[PyrS2″][Phe(2-Cl)][Bta][Thr(ol)] (staple 1-4, 4-11) [I-1082]", "value.units": "nM", "EC50": 5}
{"binder": "Ac-[αAllylPro]D[tBuAla][B5(4)]DEAAFT[S8][Phe(2-Cl)][Bta]T-NH2 (staple 1-4, 4-11) [I-1091]", "value.units": "nM", "EC50": 27}
{"binder": "Ac-[αAllylPro]D[tBuAla][B5(5)]DDAAFS[PyrS2″][Phe(2-OMe)][Bta]S-NH2 (staple 1-4, 4-11) [I-1103]", "value.units": "nM", "EC50": 15}
